Hi there, I'd appreciate the recorded self-splicing fitness (ln) for every entry that follows.
measurement.protocol: self-splicing fitness, log relative to wild type (ln ratio); higher = more splicing; Tetrahymena group I intron in knt gene, E. coli kanamycin selection, DiMSum; sequences stand for … in CUCUCU…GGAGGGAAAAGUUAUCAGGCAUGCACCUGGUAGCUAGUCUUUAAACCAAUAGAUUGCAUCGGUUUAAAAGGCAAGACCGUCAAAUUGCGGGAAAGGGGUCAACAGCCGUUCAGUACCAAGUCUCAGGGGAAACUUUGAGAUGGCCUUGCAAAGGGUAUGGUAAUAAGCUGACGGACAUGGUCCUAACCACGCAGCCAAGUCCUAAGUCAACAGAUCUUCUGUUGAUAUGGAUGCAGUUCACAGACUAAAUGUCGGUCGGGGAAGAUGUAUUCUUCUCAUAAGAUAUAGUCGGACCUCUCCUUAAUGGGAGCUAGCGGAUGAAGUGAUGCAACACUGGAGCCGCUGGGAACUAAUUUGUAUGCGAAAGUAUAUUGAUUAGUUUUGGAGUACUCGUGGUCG;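 note: selection with 25 µg/mL kanamycin versus none on LB agar overnight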
conditions.used: 30 °C
Give bare numbers.

Use these answered entries as a reference point.
CUCAAGCAAUAUUACGGUAG | -2.03
AGAGAGCAAUAUUACGCAUC | -2.22
CGAAAGCAAUAUUACGUCUG | -0.362
GCGCAGCAAUAUUACGAGCG | -2.39
UAACAGCAAUAUUACGGGGG | -3.25
CAAGAGCAAUAUUACGAAUC | -3.46
CACUAGCAAUAUUACGUCGU | -3.39
UCAUAGCAAUAUUACGGCUA | -2.69
AGAGAGCAAUAUUACGCUUU | -3.54
AUAUAGCAAUAUUACGGGGC | -3.4

Batch request: self-splicing fitness (ln) per item, same order as input.
1. AGGAAGCAAUAUUACGACGG
2. GAUAAGCAAUAUUACGAGCC
3. AUUGAGCAAUAUUACGGUUG
4. UGUGAGCAAUAUUACGUGAU
5. AGAAAGCAAUAUUACGGUUA

1. -1.98
2. -1.5
3. -3.28
4. -5.21
5. -0.628

Batch request: self-splicing fitness (ln) per item, same order as input.
1. UUCUAGCAAUAUUACGAGUG
2. GUUAAGCAAUAUUACGCCUC
3. CUGUAGCAAUAUUACGAGUG
4. UACUAGCAAUAUUACGCAAA
5. GAAGAGCAAUAUUACGGUCA
6. GGUAAGCAAUAUUACGGCAC
7. GCCAAGCAAUAUUACGCAAC
8. ACUAAGCAAUAUUACGCAGU

0.0611
-1.41
-0.807
-2.94
-2.72
-0.762
-1.98
-4.72

Batch request: self-splicing fitness (ln) per item, same order as input.
1. GUAAAGCAAUAUUACGGGCG
2. UCUAAGCAAUAUUACGCUCG
3. UAUUAGCAAUAUUACGCCCA
4. GGGCAGCAAUAUUACGGAUC

1: -0.457; 2: -1.43; 3: -0.378; 4: -0.301

Batch request: self-splicing fitness (ln) per item, same order as input.
1. UCAUAGCAAUAUUACGUCUG
2. UCGUAGCAAUAUUACGGAUU
3. UCGUAGCAAUAUUACGGUUU
4. CCCAAGCAAUAUUACGAAAA
5. GGACAGCAAUAUUACGAGCU
6. GAAAAGCAAUAUUACGCACG
7. CGACAGCAAUAUUACGUAGG

1: -1.16; 2: -2.08; 3: -3.44; 4: -2.96; 5: -1.01; 6: -0.543; 7: -0.919

Data origin: the supplement of paper PMC7877785
